B1: HSP90AB1 (parent)
chain: TLRQKAEADKNDKAVKDLVVLLFE

Variants of: B1
Assay: protein stability index of a GFP-peptide fusion (GPS, HEK-293T) (PSI 1-6); higher = more stable;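 further: lentivirally expressed fusions sorted by FACS into six bins by GFP to DsRed ratio, PSI derived from sequencing read proportions per bin multiplied by bin number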
Details: c terminus: a fixed tail appended
observation_type: protein stability index

A6P	3.29
K16I	2.24
N11P	2.58
F23L	3.27
K13V	2.91
D17V	1.6

**Query** Can you look up the measured protein stability index of `Q4S` for me?
**Result** 3.21

**Query** // protein stability index lookup, key: `V15E`
**Result** 3.37

**Query** Give its protein stability index value. Item: `V15W`
**Result** 2.64

**Query** Tell me the measured protein stability index of `V20N` , please.
**Result** 4.46

**Query** Fill in: protein stability index of `K10S` is ___
**Result** 3.56

**Query** // lookup protein stability index for `D17S`
**Result** 2.58

**Query** Please report the recorded protein stability index for `F23P` .
**Result** 5.02

**Query** I am curious: what protein stability index value has been reported for `K5A` ?
**Result** 3.12

**Query** Could you tell me which protein stability index is on file for `F23R` ?
**Result** 3.79

**Query** GET /values?readout=protein stability index&item= `E7K`
**Result** 2

All values here come from the supplement of paper PMC10567573.
